Listed next: entries and their corresponding pKd.
Target: T1, GDF8 (UniProt O14793 267-375)
T1 construct: also called myostatin; Growth and Differentiation Factor-8
T1 sequence (looked up): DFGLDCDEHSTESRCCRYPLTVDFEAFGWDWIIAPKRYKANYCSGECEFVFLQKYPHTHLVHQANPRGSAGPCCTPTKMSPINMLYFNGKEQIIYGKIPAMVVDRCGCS
Assay: Biacore; ActRIIB-Fc captured by anti-hFc antibody, ligand injected
# reply with the number alone; pKd is -log10 of concentration in mol/L

Binder	Experimental Readout	Quantitative Result
ActRIIB(P129S, P130R 20-134)-hFc (Fc fusion, kept as two molecules; not shown: human Fc domain (hFc)) GRGEAETRECIYYNANWELERTNQSGLERCEGEQDKRLHCYASWRNSSGTIELVKKGCWLDDFNCYDRQECVATEENPQVYFCCCEGNFCNERFTHLPEAGGPEVTYEPSRTAPTGGG	pKd	8.78
ActRIIB(R64K 20-134)-hFc (Fc fusion, not shown: human Fc domain (hFc)) GRGEAETRECIYYNANWELERTNQSGLERCEGEQDKRLHCYASWKNSSGTIELVKKGCWLDDFNCYDRQECVATEENPQVYFCCCEGNFCNERFTHLPEAGGPEVTYEPPPTAPTGGG	pKd	9.68

Next binder, please.
Exercise: Entry ActRIIB(20-134)-hFc (Fc fusion) GRGEAETRECIYYNANWELERTNQSGLERCEGEQDKRLHCYASWRNSSGTIELVKKGCWLDDFNCYDRQECVATEENPQVYFCCCEGNFCNERFTHLPEAGGPEVTYEPPPTAPTGGGTHTCPPCPAPELLGGPSVFLFPPKPKDTLMISRTPEVTCVVVDVSHEDPEVKFNWYVDGVEVHNAKTKPREEQYNSTYRVVSVLTVLHQDWLNGKEYKCKVSNKALPVPIEKTISKAKGQPREPQVYTLPPSREEMTKNQVSLTCLVKGFYPSDIAVEWESNGQPENNYKTTPPVLDSDGSFFLYSKLTVDKSRWQQGNVFSCSVMHEALHNHYTQKSLSLSPGK : reported pKd = ?
Solution: 10.03
